target: human plasma kallikrein (hPK) (Homo sapiens, UniProt P03952); assay: Enzyme inhibition assay, human plasma kallikrein
Numbered stars: 1 amine (or outer) side, 2 acyl side, 3 side chain; on linkers, the order of the positions; unused ones are H or OH. Bridge positions count the residues as written; N and C are the ends. Peptide text beside a SMILES is read from it. TBMB = c1c(C[*:1])cc(C[*:3])cc1C[*:2]
Parameter: Ki (nM)
Numeric only. Scale: nM

INSERT INTO measurements (compound, value_units, reported_result) VALUES
  ('CSCC[C@@H]1NC(=O)[C@H]([C@@H](C)O)NC(=O)[C@@H]2CSCc3cc(cc(c3)CSC[C@@H](C(=O)N[C@@H](C)C(N)=O)NC(=O)[C@H](Cc3c[nH]c4ccccc34)NC(=O)[C@H](CC(N)=O)NC(=O)[C@H](CCC(N)=O)NC1=O)CSC[C@H](NC(=O)[C@H](C)N)C(=O)N[C@@H]([C@@H](C)O)C(=O)N[C@@H](Cc1c[nH]c3ccccc13)C(=O)N1CCC[C@H]1C(=O)N[C@@H](C)C(=O)N[C@@H](CCCNC(=N)N)C(=O)N2 [06-A2*] (H-ACTWPARCTMQNWCA-NH2; linker 2-8-14 via TBMB)', 'nM', 181);

Now look at this entry.
Ask: Ki lookup needed for CC(=O)N[C@H]1CSCc2cc3cc(c2)CSC[C@H](NC(=O)[C@@H](CCCNC(=N)N)NC(=O)[C@H](C)NC(=O)[C@@H]2CCCN2C(=O)[C@H](Cc2c[nH]c4ccccc24)NC(=O)[C@H](CO)NC1=O)C(=O)N[C@@H](CC(C)C)C(=O)N[C@@H](Cc1c[nH]cn1)C(=O)N[C@@H](CCC(N)=O)C(=O)N[C@@H](CC(=O)O)C(=O)N[C@@H](CC(C)C)C(=O)N[C@H](C(N)=O)CSC3 [Ac-(06-34-18) D-Arg5] , thanks.
Reply: 52
